biological target: UniProt Q15910; experiment: Western blot of EZH2 protein in DU-145 cells; conditions: FIG. 27, 6 days treatment
Sequence (Q15910 whole entry): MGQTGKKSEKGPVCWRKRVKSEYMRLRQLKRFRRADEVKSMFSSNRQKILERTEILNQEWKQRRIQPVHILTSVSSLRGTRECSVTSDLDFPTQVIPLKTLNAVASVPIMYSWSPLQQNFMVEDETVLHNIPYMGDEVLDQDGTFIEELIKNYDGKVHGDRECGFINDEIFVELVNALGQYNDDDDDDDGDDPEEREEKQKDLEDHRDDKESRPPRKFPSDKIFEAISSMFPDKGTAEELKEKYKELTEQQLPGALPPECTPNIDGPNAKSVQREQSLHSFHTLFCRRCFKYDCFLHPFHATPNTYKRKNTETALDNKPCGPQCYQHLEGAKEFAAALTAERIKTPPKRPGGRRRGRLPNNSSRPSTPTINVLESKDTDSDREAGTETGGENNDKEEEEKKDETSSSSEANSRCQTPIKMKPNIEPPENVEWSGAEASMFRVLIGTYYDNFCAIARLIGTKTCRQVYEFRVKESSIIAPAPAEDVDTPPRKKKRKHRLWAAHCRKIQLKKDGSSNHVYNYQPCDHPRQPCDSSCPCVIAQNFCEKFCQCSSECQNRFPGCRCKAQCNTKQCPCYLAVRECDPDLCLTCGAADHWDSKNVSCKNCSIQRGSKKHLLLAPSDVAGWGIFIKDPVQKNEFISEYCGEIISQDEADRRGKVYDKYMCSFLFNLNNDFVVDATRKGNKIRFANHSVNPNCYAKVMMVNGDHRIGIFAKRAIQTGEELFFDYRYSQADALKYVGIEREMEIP
Sequence (Q15022 whole entry partner): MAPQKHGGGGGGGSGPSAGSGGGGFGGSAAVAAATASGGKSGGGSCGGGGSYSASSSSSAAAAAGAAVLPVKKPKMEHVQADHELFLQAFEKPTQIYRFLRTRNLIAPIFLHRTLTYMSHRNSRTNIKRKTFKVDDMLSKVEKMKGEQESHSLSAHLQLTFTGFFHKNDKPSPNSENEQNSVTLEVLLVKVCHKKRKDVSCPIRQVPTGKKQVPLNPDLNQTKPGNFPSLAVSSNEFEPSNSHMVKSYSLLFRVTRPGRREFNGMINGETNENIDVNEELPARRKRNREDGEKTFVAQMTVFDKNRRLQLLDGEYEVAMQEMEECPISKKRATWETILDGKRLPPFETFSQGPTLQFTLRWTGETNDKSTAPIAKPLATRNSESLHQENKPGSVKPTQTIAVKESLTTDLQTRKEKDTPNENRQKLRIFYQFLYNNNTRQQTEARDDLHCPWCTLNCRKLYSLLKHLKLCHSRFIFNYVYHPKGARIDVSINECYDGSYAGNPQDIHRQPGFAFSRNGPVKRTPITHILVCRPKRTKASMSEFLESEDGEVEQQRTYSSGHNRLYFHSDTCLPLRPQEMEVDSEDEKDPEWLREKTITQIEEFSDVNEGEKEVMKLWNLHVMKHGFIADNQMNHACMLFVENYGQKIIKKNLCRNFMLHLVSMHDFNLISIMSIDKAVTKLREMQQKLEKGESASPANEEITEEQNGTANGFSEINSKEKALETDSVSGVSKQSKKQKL
Sequence (O75530 whole entry partner): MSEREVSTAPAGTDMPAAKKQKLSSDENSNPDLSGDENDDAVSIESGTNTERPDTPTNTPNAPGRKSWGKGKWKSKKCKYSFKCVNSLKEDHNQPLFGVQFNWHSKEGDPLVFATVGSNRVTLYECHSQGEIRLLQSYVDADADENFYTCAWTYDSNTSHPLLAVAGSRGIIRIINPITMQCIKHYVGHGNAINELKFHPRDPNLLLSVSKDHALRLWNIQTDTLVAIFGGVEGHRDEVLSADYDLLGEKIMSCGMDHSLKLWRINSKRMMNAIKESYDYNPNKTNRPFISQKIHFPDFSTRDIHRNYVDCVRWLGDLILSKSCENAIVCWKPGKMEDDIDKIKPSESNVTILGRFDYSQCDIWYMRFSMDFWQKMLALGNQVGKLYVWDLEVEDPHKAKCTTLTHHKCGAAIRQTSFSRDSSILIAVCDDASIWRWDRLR

compound	EZH2 protein (western blot)
CCN(c1cc(-c2ccc(CN3CCN(C(=O)CCCCCCCCCC(=O)N[C@H](C(=O)N4C[C@@H](O)C[C@H]4C(=O)NCc4ccc(-c5scnc5C)cc4)C(C)(C)C)CC3)cc2)cc(C(=O)NCc2c(C)cc(C)[nH]c2=O)c1C)C1CCOCC1 [Compound 6286]	no changes
CCN(c1cc(-c2ccc(CN3CCN(CCCCCCCCCCCC(=O)N[C@H](C(=O)N4C[C@@H](O)C[C@H]4C(=O)NCc4ccc(-c5scnc5C)cc4)C(C)(C)C)CC3)cc2)cc(C(=O)NCc2c(C)cc(C)[nH]c2=O)c1C)C1CCOCC1 [Compound 6300]	no changes

Reference for the values: patent US12491252B2
